# procedure details: AUC in Sprague-Dawley rat at 5 mg/kg, po
# Format: ADME, organism-based
# Parameters: dose 5 mg/kg, route oral
# condition info: plasma
I'd appreciate it if you could label each record using AUC and these ranges: low value = under 600 ng·h/mL, medium value = from 600 ng·h/mL up to 1000 ng·h/mL, high value = 1000 ng·h/mL and over

Ask: Quick check: band for Cc1c(Cl)cc2[nH]c(=O)c(=O)[nH]c2c1N(CC(=O)O)S(C)(=O)=O
Result: high value

Ask: Category lookup for the compound COCCN(c1c(Cl)c(Cl)cc2[nH]c(=O)c(=O)[nH]c12)S(C)(=O)=O
Result: high value

Ask: Which bin should I file CS(=O)(=O)N(CC1CCCCO1)c1c(Cl)c(Cl)cc2[nH]c(=O)c(=O)[nH]c12 (stereo not given) under?
Result: high value

Ask: Consider CS(=O)(=O)N(CC1CCCO1)c1c(Cl)c(Cl)cc2[nH]c(=O)c(=O)[nH]c12 (stereo not given) . To which AUC class does it belong?
Result: medium value

Ask: Returns: class label. Input: COCCN(c1c(C)c(Cl)cc2[nH]c(=O)c(=O)[nH]c12)S(C)(=O)=O
Result: high value

Ask: Assign a bin to COc1cccc(CN(c2c(Cl)c(Cl)cc3[nH]c(=O)c(=O)[nH]c23)S(C)(=O)=O)c1
Result: low value

Ask: Could you tell me which band CS(=O)(=O)N(CC(=O)O)c1c(Cl)c(Cl)cc2[nH]c(=O)c(=O)[nH]c12 belongs to?
Result: low value

Ask: Category of CCOCCCN(c1c(Cl)c(Cl)cc2[nH]c(=O)c(=O)[nH]c12)S(C)(=O)=O , please.
Result: high value

Ask: Categorize the following entry: CCS(=O)(=O)N(CCC(F)(F)F)c1c(Cl)c(Cl)cc2[nH]c(=O)c(=O)[nH]c12
Result: high value

Ask: GET /class?item= CCOCCN(c1c(Cl)c(Cl)cc2[nH]c(=O)c(=O)[nH]c12)S(C)(=O)=O
Result: high value

Ask: Which bin should I file Cc1cc2[nH]c(=O)c(=O)[nH]c2c(N(CC(=O)O)S(C)(=O)=O)c1Cl under?
Result: low value

Ask: Returns: class label. Input: Cc1cc2[nH]c(=O)c(=O)[nH]c2c(N(CCO)S(C)(=O)=O)c1Cl
Result: medium value

Ask: Which category does the recorded AUC put CS(=O)(=O)N(CCCO)c1c(Cl)c(Cl)cc2[nH]c(=O)c(=O)[nH]c12 in?
Result: low value

Ask: Each compound maps to one class by AUC. Which class for CCOCCOCCN(c1c(Cl)c(Cl)cc2[nH]c(=O)c(=O)[nH]c12)S(C)(=O)=O ?
Result: medium value

Ask: Could you place CCc1c(Cl)cc2[nH]c(=O)c(=O)[nH]c2c1N(CCO)S(C)(=O)=O in its proper category? Many thanks.
Result: low value

Ask: Lab note: sort CC(O)CN(c1c(Cl)c(Cl)cc2[nH]c(=O)c(=O)[nH]c12)S(C)(=O)=O (stereo not given) into the matching AUC band.
Result: medium value

Ask: Kindly state the category for this compound: COCCN(c1c(Cl)c(C)cc2[nH]c(=O)c(=O)[nH]c12)S(C)(=O)=O
Result: high value

Ask: Assign a bin to CCc1cc2[nH]c(=O)c(=O)[nH]c2c(N(CCCOC)S(C)(=O)=O)c1Cl
Result: medium value
